- Target Desc: human dopamine transporter (Homo sapiens (Human))
- Assay Info: Human DAT (dopamine transporter) uptake assay
- Type: cell-based
- Conditions Used: read-out: hDAT Ki
Attribute Measured: Ki (µM)

[
  {
    "Compound": "CNC[C@H](Cc1ccccc1O)c1ccc2ccccc2c1",
    "Ki / µM": 0.0916
  },
  {
    "Compound": "CCOC(=O)CO[C@H](c1ccccc1)[C@H](CNC)c1ccc2ccccc2c1",
    "Ki / µM": 0.0708
  },
  {
    "Compound": "CNCC(CCc1ccccc1)[C@H](O)c1ccccc1 (some centres unmarked)",
    "Ki / µM": 0.0289
  }
]

a = CNC[C@H](c1ccc(Cl)c(Cl)c1)[C@@H](O)c1ccccc1S(C)(=O)=O
b = CNC[C@H](c1ccc(Cl)c(Cl)c1)[C@H](O)c1cccc(N(C)C)c1 (single isomer, unassigned)
c = CNC[C@H](c1ccc2ccccc2c1)[C@H](O)c1cc(F)cc(F)c1 (single isomer, unassigned) [Compound 37]
Hey, quick one: sort these by Ki, largest value first please. Sort and list the labels as requested.
b, c, a

* * *

- Target Desc: human dopamine transporter (Homo sapiens (Human), UniProt Q01959)
- Sequence (Q01959 whole entry): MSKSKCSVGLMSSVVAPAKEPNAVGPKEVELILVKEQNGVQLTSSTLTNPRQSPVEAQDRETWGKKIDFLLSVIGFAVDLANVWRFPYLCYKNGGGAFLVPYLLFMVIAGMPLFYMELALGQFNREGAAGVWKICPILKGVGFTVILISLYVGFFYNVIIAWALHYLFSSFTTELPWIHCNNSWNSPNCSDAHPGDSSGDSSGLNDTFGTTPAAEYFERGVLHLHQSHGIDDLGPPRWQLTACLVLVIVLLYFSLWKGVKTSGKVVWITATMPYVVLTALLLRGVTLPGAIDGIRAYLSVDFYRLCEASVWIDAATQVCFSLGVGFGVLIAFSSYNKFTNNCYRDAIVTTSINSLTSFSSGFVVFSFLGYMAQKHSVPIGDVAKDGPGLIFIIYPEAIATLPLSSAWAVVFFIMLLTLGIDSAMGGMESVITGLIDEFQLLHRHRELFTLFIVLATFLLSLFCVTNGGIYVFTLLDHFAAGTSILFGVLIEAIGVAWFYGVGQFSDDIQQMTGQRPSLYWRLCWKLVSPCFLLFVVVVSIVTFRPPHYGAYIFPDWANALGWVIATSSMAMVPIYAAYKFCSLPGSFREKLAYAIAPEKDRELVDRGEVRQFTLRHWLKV
- Assay Info: Human DAT (dopamine transporter) uptake assay
- Type: cell-based
- Conditions Used: read-out: hDAT Ki
pKi: −log10 of the molar value.
Attribute Measured: pKi

[
  {
    "Molecule": "CNC[C@H](c1ccc(Cl)c(Cl)c1)[C@H](O)c1ccncc1 (racemic)",
    "pKi": 7.33
  }
]

A = CNC[C@H](c1ccc2ccccc2c1)[C@H](OCC(=O)N1CC[C@H](O)C1)c1ccccc1
B = CNC[C@@H](Cc1ccc(C)s1)c1ccc2ccccc2c1
From the items above, decide which of A and B has the lower pKi reading. When you have decided, please share the label of that item.
B
(B: 7.13, A: 7.77)

1 = CNCC(Cc1ccc(C)s1)c1ccc2ccccc2c1 (centres unmarked)
2 = CNC[C@H](c1ccc(Cl)c(Cl)c1)[C@H](O)c1cccc([N+](=O)[O-])c1
3 = CNC[C@H](c1ccc2ccccc2c1)[C@H](OCC(=O)NCCOC)c1ccccc1
Hey, quick one: sort these by pKi, largest value first please. Sort and list the labels as requested.
2, 1, 3

* * *

- Target Desc: CYP3A4 (Homo sapiens (Human))
- Sequence (P08684 whole entry): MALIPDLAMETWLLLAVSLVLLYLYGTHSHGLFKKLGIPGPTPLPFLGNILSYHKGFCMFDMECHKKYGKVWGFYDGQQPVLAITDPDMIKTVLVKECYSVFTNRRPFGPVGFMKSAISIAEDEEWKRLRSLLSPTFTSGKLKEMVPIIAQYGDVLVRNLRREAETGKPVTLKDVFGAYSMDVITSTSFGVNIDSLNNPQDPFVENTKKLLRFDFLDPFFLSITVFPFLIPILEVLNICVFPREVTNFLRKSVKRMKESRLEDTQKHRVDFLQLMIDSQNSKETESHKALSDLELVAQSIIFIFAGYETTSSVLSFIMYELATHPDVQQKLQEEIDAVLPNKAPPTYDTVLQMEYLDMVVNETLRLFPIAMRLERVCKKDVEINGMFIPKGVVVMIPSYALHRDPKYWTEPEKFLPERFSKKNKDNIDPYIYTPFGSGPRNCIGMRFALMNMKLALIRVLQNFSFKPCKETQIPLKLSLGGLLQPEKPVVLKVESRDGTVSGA
- Assay Info: Cytochrome P450 inhibition assay, recombinant CYP3A4 (BFC substrate)
- Conditions Used: recombinant enzyme
pIC50: −log10 of the molar value.
Attribute Measured: pIC50

Examples from the recorded data:
[
  {
    "Molecule": "CN(C)C[C@H](c1ccc2ccccc2c1)[C@H](O)c1cccs1 (racemic)",
    "pIC50": "≤ 4.70"
  },
  {
    "Molecule": "CNC[C@@H](c1ccc(Cl)c(Cl)c1)[C@@H](O)c1cccc(N(C)C)c1 (single isomer, unassigned)",
    "pIC50": "≤ 4.70"
  }
]

Attention now shifts to the item below.
Considering CNC[C@@H](c1ccc2ccccc2c1)[C@H](O)c1ccccn1 (racemic) [Compound 72] , its pIC50 with CYP3A4 (Homo sapiens (Human)) was recorded as ≤ 4.70

* * *

- Target Desc: UniProtKB P10635
- Sequence (P10635 whole entry): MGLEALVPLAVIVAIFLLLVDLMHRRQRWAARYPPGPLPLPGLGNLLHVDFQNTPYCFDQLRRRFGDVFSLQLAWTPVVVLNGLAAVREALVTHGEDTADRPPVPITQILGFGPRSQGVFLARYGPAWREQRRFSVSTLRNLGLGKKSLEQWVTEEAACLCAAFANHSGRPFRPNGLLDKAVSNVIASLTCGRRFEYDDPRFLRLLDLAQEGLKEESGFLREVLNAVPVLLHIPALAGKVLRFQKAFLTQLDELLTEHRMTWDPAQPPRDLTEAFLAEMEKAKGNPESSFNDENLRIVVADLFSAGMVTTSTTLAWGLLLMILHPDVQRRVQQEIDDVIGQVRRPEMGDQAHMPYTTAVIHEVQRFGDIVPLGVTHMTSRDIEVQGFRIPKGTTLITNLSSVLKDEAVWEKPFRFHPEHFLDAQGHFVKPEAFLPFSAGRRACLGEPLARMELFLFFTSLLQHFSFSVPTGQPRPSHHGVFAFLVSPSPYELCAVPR
- Assay Info: Cytochrome P450 inhibition assay, recombinant CYP2D6 (MAMC substrate)
- Assay type: in vitro ADME
- Conditions Used: recombinant enzyme
pIC50: −log10 of the molar value.
Attribute Measured: pIC50

Examples from the recorded data:
[
  {
    "Molecule": "CNC[C@H](c1ccc(Cl)c(Cl)c1)[C@H](O)c1cccc(S(C)(=O)=O)c1",
    "Target Desc": "UniProtKB P10635",
    "pIC50": 5.46
  },
  {
    "Molecule": "CNC[C@H](c1ccc2ccccc2c1)[C@H](OCC(=O)N1CCCC1)c1ccccc1",
    "Target Desc": "UniProtKB P10635",
    "pIC50": 6.10
  },
  {
    "Molecule": "CN1C[C@H](c2ccc3ccccc3c2)[C@@H](c2ccccc2)OCC1=O",
    "Target Desc": "UniProtKB P10635",
    "pIC50": 4.70
  }
]

A = CNC[C@H](c1ccc2ccccc2c1)[C@H](O)c1ccccc1C (racemic) [Compound 56]
B = CN(C)C[C@H](c1ccc2ccccc2c1)[C@H](O)c1cccs1 (racemic)
C = CN1CCO[C@@H](c2ccccc2)[C@H](c2ccc3ccccc3c2)C1
D = CNCC(Cc1ccccc1)c1ccc2cccnc2c1 (stereo not shown)
Hey, quick one: sort these by pIC50, largest value first please. Sort and list the labels as requested.
A, D, B, C
(A: 6.62, D: 6.25, B: 6.04, C: 5.52)
